# Plant response rating, Wheat annotations
Tested on: wheat
Assay: Test B pre/postemergence wheat
Type: in vivo, Triticum aestivum
Settings: Preemergence, Rate 500 g/ha; scale of 0 to 10 where 0 is no effect and 10 is complete control
Experimental: […] At the same time, these crop and weed species were also treated with postemergence applications of test chemicals formulated in the same manner. […] Treated plants and controls were maintained in a greenhouse for twelve to sixteen days, after which all species were compared to controls and visually evaluated. […]

Reference set (5 entries):
> print(dat)
                                   molecule                reportedmetric  valuemeasured
1  CC(C)N(C(=O)n1oc(=O)n(C[Si](C)(C)C)c1=O)c1ccc(F)cc1  Plant response rating, Wheat              0
2  Cc1ccccc1N(C(=O)n1oc(=O)n(-c2ccccc2C)c1=O)C(C)C  Plant response rating, Wheat              0
3  CC(C)N(C(=O)n1oc(=O)n(CCF)c1=O)c1ccc(F)cc1F  Plant response rating, Wheat              9
4  CC(C)N(C(=O)n1oc(=O)n(CC=Cc2ccccc2)c1=O)c1ccc(F)cc1  Plant response rating, Wheat              0
5  COC(C)n1c(=O)on(C(=O)N(c2ccc(Cl)cc2)C(C)C)c1=O (stereo not shown)  Plant response rating, Wheat              0

Entry CCCCn1c(=O)on(C(=O)N(c2ccc(F)cc2F)C(C)C)c1=O , Plant response rating, Wheat reported as 4

Entry CC(C)N(C(=O)n1oc(=O)n([C@H](C)c2ccccc2)c1=O)c1ccc(F)cc1F , Plant response rating, Wheat reported as 2

All figures here come from patent US6737383B1.
